Test system: M14 melanoma
Assay Summary: NCI tumour cell line growth inhibition, 48 h
Measurement Label: TGI

{"Compound": "CC1CCC2(OC1)OC1CC3C4CC=C5CC(OC6OC(CO)C(OC7OC(C)C(OC8OC(C)C(O)C(O)C8O)C(O)C7O)C(O)C6OC6OC(C)C(O)C(O)C6O)CCC5(C)C4CCC3(C)C1C2C (stereo unspecified)", "Measurement Label": "TGI", "Result": "2.27 µM"}
{"Compound": "O=C(Nc1ccccc1)N1CCNC1=S", "Measurement Label": "TGI", "Result": "> 100 µM"}
{"Compound": "Cc1[nH]c2ncn(/N=C/c3ccccc3)c(=N)c2c1Cc1ccccc1", "Measurement Label": "TGI", "Result": "> 100 µM"}
{"Compound": "COC(=O)c1c/c(=N\\NC(=O)CC(=O)Nc2ccccc2Cl)c2ccccc2o1", "Measurement Label": "TGI", "Result": "> 100 µM"}
{"Compound": "O=C(Oc1ccccc1)c1cc(O)c(O)c(O)c1", "Measurement Label": "TGI", "Result": "34 µM"}
{"Compound": "Oc1cn(-c2ccc(Cl)cc2)nc1-c1nnc(Nc2ccccc2)o1", "Measurement Label": "TGI", "Result": "37.5 µM"}
{"Compound": "N=C(c1ccccc1)N1CCCCC1", "Measurement Label": "TGI", "Result": "> 100 µM"}
{"Compound": "CCc1ccccc1NC(=O)CCc1nc(=S)[nH][nH]1", "Measurement Label": "TGI", "Result": "> 100 µM"}
{"Compound": "CCOC(=O)CNC(=O)C(CSC(=O)N(O)c1ccc(Br)cc1)NC(=O)CCC(N)C(=O)OCC (stereo unspecified)", "Measurement Label": "TGI", "Result": "> 50 µM"}
{"Compound": "CCOC(=O)c1sc(=S)c2c(C(=O)c3ccccc3)c(C(=O)c3ccccc3)sc2c1C(=O)OCC", "Measurement Label": "TGI", "Result": "> 100 µM"}
{"Compound": "O=S(=O)(O)C(F)(F)C(F)(F)C(F)(F)C(F)(F)F", "Measurement Label": "TGI", "Result": "> 100 µM"}
{"Compound": "Cc1cccc(C(C)O)n1 (stereo unspecified)", "Measurement Label": "TGI", "Result": "> 100 µM"}
{"Compound": "COc1ccc(/C=C/C(=O)NCC(NC(=O)/C=C/c2ccc(OC)c(OC)c2)C(=O)O)cc1OC (stereo unspecified)", "Measurement Label": "TGI", "Result": "> 100 µM"}
{"Compound": "COC(=O)Nc1ccc2ccc3c(NC(=O)OC)ccc4ccc1c2c43 (tested in a mixture with another compound)", "Measurement Label": "TGI", "Result": "> 50 µM"}
{"Compound": "C=CCOc1cc2c(cc1C(C)c1ccc(OC)cc1)OCO2 (stereo unspecified)", "Measurement Label": "TGI", "Result": "> 42.8 µM"}
{"Compound": "C/C(C=O)=C1\\C(O)C[C@]1(C)C1CC(C)(C)CC1O (stereo partly specified)", "Measurement Label": "TGI", "Result": "> 100 µM"}

* * *

Test system: COLO 205 colon
Assay Summary: NCI tumour cell line growth inhibition, 48 h
Listing: TGI of selected molecules
Measurement Label: TGI

{"Molecule": "COc1ccc(C2=NNC(c3ccc(-c4ccc(OC)cc4[N+](=O)[O-])o3)C2)cc1 (stereo not given)", "Result": "> 100 µM"}
{"Molecule": "O=S(=O)(O)C(F)(F)C(F)(F)C(F)(F)C(F)(F)F", "Result": "> 100 µM"}
{"Molecule": "CC(=O)/C=C1/c2ccccc2N(C(C)=O)C1O (stereo not given)", "Result": "> 100 µM"}
{"Molecule": "CCN(CC)c1ccc(/C=C/C2=NN(c3cccc(S(=O)(=O)O)c3)C3(C2)C(Cl)C(=O)N3c2nc3ccccc3s2)cc1 (stereo not given)", "Result": "31.8 µM"}
{"Molecule": "CNC(=O)c1cc(Oc2ccc3nc(NC(=O)Nc4ccc(Cl)c(Cl)c4)sc3c2)ccn1", "Result": "> 100 µM"}
{"Molecule": "CCOC(=O)c1sc(=S)c2c(C(=O)c3ccccc3)c(C(=O)c3ccccc3)sc2c1C(=O)OCC", "Result": "45.6 µM"}
{"Molecule": "CSc1nc(C)cc(Nc2ccc(O)c(CN3CCCCC3)c2)n1", "Result": "> 100 µM"}
{"Molecule": "C[C@]12CC[C@H]3[C@@H](CC=C4C[C@@H](O)CC[C@@]43C)[C@@H]1C/C(=C\\c1cccc(OCCN3CCOCC3)c1)[C@@H]2O", "Result": "58.3 µM"}
{"Molecule": "CCNC(=O)C(O)C1(O)CCC2[C@@H]3CCC4=CC(=O)C=C[C@]4(C)C3[C@@H](O)C[C@@]21C (stereo not given in full)", "Result": "> 100 µM"}
{"Molecule": "O=C1N=C2c3c(sc4c3CCCC4)N=CN2C1N=Nc1ccc(Cl)cc1 (stereo not given)", "Result": "39.3 µM"}
